experiment: in vitro; settings: mouse, 20% fresh mouse serum
Peptide text beside a SMILES is read from it.
parameter measured: remaining at 2 h, 1.6 mg/ml (%)

INSERT INTO results (compound, reported_value) VALUES
  ('CC[C@H](C)[C@H](NC(=O)CN)C(=O)N[C@@H](Cc1c[nH]c2ccccc12)C(=O)N[C@@H](CCCCN)C(=O)N[C@@H](Cc1ccccc1)C(=O)N[C@@H](CC(C)C)C(=O)N[C@@H](CCCCN)C(=O)N[C@@H](CCCCN)C(=O)N[C@@H](C)C(=O)N[C@@H](CCCCN)C(=O)N[C@@H](CCCCN)C(=O)N[C@@H](Cc1ccccc1)C(=O)N[C@@H](Cc1c[nH]c2ccccc12)C(=O)N[C@@H](CCCCN)C(N)=O [MSI-1] (H-GIWKFLKKAKKFWK-NH2)', 53.5);

###

assay: Plasma stability; assay type: in vitro ADME, mouse; details: fresh mouse plasma or serum (one summary value for both); either mouse plasma or serum, post 2 h coincubation (summary in the discussion); read-out: remaining peptide
Peptide text beside a SMILES is read from it.
parameter measured: remaining at 2 h, 1.6 mg/ml (%)

INSERT INTO measurements (compound, parameter_measured, reported_value) VALUES
  ('CC[C@H](C)[C@H](NC(=O)CN)C(=O)N[C@@H](Cc1c[nH]c2ccccc12)C(=O)N[C@@H](CCCCN)C(=O)N[C@@H](Cc1ccccc1)C(=O)N[C@@H](CC(C)C)C(=O)N[C@@H](CCCCN)C(=O)N[C@@H](CCCCN)C(=O)N[C@@H](C)C(=O)N[C@@H](CCCCN)C(=O)N[C@@H](CCCCN)C(=O)N[C@@H](Cc1ccccc1)C(=O)N[C@@H](Cc1c[nH]c2ccccc12)C(=O)N[C@@H](CCCCN)C(N)=O [MSI-1] (H-GIWKFLKKAKKFWK-NH2)', 'remaining at 2 h, 1.6 mg/ml', 60);

###

experiment: in vitro; details: mouse, 20% fresh mouse serum
Peptide text beside a SMILES is read from it.
parameter measured: remaining at 0.5 h, 1.6 mg/ml (%)

INSERT INTO results (compound, parameter_measured, reported_value) VALUES
  ('CC[C@H](C)[C@H](NC(=O)CN)C(=O)N[C@@H](Cc1c[nH]c2ccccc12)C(=O)N[C@@H](CCCCN)C(=O)N[C@@H](Cc1ccccc1)C(=O)N[C@@H](CC(C)C)C(=O)N[C@@H](CCCCN)C(=O)N[C@@H](CCCCN)C(=O)N[C@@H](C)C(=O)N[C@@H](CCCCN)C(=O)N[C@@H](CCCCN)C(=O)N[C@@H](Cc1ccccc1)C(=O)N[C@@H](Cc1c[nH]c2ccccc12)C(=O)N[C@@H](CCCCN)C(N)=O [MSI-1] (H-GIWKFLKKAKKFWK-NH2)', 'remaining at 0.5 h, 1.6 mg/ml', 92.5);
